Where these numbers come from: PubChem BioAssay (NCI)

Tested on: BT-549 breast
Assay: NCI tumour cell line growth inhibition, 48 h; in the data active means GI50 below about 0.43 µM; inactive means the rest
Thanks in advance; please answer with one of these: active, inactive

Known results for compounds:
>  <compound>
Cc1ccc(/C=C/C(=O)c2ccc(N)cc2)c(C)c1

>  <test-target>
BT-549 breast

>  <class-label>
inactive

$$$$
>  <compound>
COc1ccc(N(C)c2nc(Cl)nc3ccn(C)c23)cc1

>  <test-target>
BT-549 breast

>  <class-label>
active

$$$$
>  <compound>
O=C(NCC(=O)N1CC[C@H](NC2CCC(O)(c3ccc(-c4ncccn4)cn3)CC2)C1)c1cccc(C(F)(F)F)c1 (stereo partly specified)

>  <test-target>
BT-549 breast

>  <class-label>
inactive

$$$$
>  <compound>
COc1cc2c3c(n(CCCCNC(=O)OCC4c5ccccc5-c5ccccc54)c(=O)c2cc1OC)-c1cc2c(cc1C3=O)OCO2

>  <test-target>
BT-549 breast

>  <class-label>
inactive

$$$$
>  <compound>
O[C@@H]1CCCN1Cc1cc2cc3c(cc2c2cc(OCc4ccccc4)ccc12)OCO3

>  <test-target>
BT-549 breast

>  <class-label>
inactive

$$$$

Please look at the following compound next.
Problem: For Cn1ccnc1C(=O)/C=C/c1ccc(C(=O)Nc2ccccc2O)cc1 , which call appears in the assay record?
Solution: inactive
